Reference source: paper PMC11940309

# Tested on: estrogen receptor (ER)
# assay_overview: ER-mediated luciferase reporter induction in T47D KBluc cells
# Assay type: cell-based, human
# condition_notes: 1 µM; relative to 1nM estradiol
Each entry below carries its reported % ER Induction.
Answer in %, number only, no unit symbol.

Sample records with % ER Induction:
[[record]]
compound = "Oc1ccc(C2COc3cc(O)ccc3C2)cc1 (centres unmarked) [7,4′-dihydroxyisoflavan]"
observation_type = "% ER Induction"
number = 96

[[record]]
compound = "O=c1cc(-c2ccc(O)c(O)c2)oc2cc(O)ccc12 [7,3′,4′-trihydroxyflavone]"
observation_type = "% ER Induction"
number = 0

[[record]]
compound = "COc1cccc2oc(-c3ccc(O)cc3)cc(=O)c12 [5-methoxy,4′-hydroxyflavone]"
observation_type = "% ER Induction"
number = "−2"


Given the entry O=c1cc(-c2ccccc2)oc2cccc(O)c12 [5-hydroxyflavone] , report its measured % ER Induction.
0

Given the entry O=c1cc(-c2ccc(O)c(O)c2)oc2cc(O)cc(O)c12 [5,7,3′,4′-tetrahydroxyflavone] , report its measured % ER Induction.
3

Given the entry O=C1CC(c2ccc(O)cc2)Oc2cc(O)cc(O)c21 (centres unmarked) [5,7,4′-trihydroxyflavanone] , report its measured % ER Induction.
48

Given the entry O=c1cc(-c2ccc(O)cc2)oc2cccc(O)c12 [5,4′-dihydroxyflavone] , report its measured % ER Induction.
53

Given the entry O=C1CC(c2ccccc2)Oc2ccc(O)cc21 (centres unmarked) [6-hydroxyflavanone] , report its measured % ER Induction.
15

Given the entry "COc1ccc([C@@H]2CC(=O)c3c(O)cc(O)cc3O2)cc1O" , report its measured % ER Induction.
10

Given the entry O=c1cc(-c2ccc(O)cc2)oc2ccccc12 [4′-hydroxyflavone] , report its measured % ER Induction.
12

Given the entry O=C1CC(c2ccc(O)cc2)Oc2ccccc21 (centres unmarked) [4′-hydroxyflavanone] , report its measured % ER Induction.
12

Given the entry COc1ccc2oc(-c3ccc(O)cc3)cc(=O)c2c1 [6-methoxy,4′-hydroxyflavone] , report its measured % ER Induction.
129

Given the entry O=c1c(O)c(-c2ccc(O)cc2)oc2cc(O)ccc12 [3,7,4′-trihydroxyflavone] , report its measured % ER Induction.
86
